Value source: the supplement of paper PMC6555819

Test system: PPARg:RXRa DBDmut IVT, anti-RXR (DBD mutation: RXRa K156A/R161A, NR concentration 270 nM, RXRa partner concentration 90 nM)
Assay: PBM binding z-score (relative to random genomic background probes); higher = stronger binding; sequences stand for … in GC…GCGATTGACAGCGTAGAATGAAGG
Listed sequences paired with reported PBM binding z-score
Please reply with the number alone, leaving off any unit.

Answered cases to consult:
TGAATGAGGTTATAAGATAAGGGAACGTTGCAAA	0.589
CCGACTGGGCCAGAAAGGTTACCATACCATCCGG	0.593
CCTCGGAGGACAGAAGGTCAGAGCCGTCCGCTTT	0.172

Now consider the entry below.
For record `AGTCAAAGTTCATCTAGGTAACGCAAGATATGCT` the listed PBM binding z-score is 0.815
